# targetOrTestSystem: T1, 4H1629-AA
# T1 chain: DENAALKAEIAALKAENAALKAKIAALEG
# assayMethodText: two-hybrid library CCmax;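 also: natural log of median RNA to DNA barcode read ratio; higher means stronger binding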
# setupConditions: mean of both orientations
observationType: interaction score

binder | obsValue
DENAALEAKIAALKAEIAALEAKNAALEG [4H1351-AA] | -1.62
DENAALKAEIAALEAKNAALKAEIAALKG [4H1594-AA] | -0.822
DENAALEAKNAALKAKIAALKAEIAALEG [4H1513-AA] | -1.62
DENAALEAENAALEAEIAALEAEIAALEG [4H1153-AA] | -1.34
DEIAALEAEIAALKAKNAALKAENAALEG [4H123-AA] | -1.79
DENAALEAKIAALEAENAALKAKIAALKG [4H1310-AA] | -0.348
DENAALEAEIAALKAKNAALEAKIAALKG [4H1142-AA] | -1.15
DENAALEAKIAALKAKIAALKAENAALKG [4H1388-AA] | -1.24
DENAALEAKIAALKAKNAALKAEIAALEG [4H1401-AA] | -1.08
